# subject.of.test: Potassium channel subfamily T member 1 (Homo sapiens)
# experiment: Inhibition of wild-type Slack (unknown origin) expressed in HEK293 cells measured by whole-cell electrophysiology assay
# Assay type: cell-based
pIC50: −log10 of the molar value.
outcome.measure: pIC50

[
  {
    "smiles.record": "COc1ccc(Cl)cc1NC(=O)CN1CCN(S(=O)(=O)N2CCC(C)CC2)CC1",
    "subject.of.test": "Potassium channel subfamily T member 1 (Homo sapiens)",
    "recorded.value": 5.77
  },
  {
    "smiles.record": "COc1ccc(Cl)cc1NC(=O)CN1CCN(S(=O)(=O)N2CCC(C)CC2)C[C@H]1C",
    "subject.of.test": "Potassium channel subfamily T member 1 (Homo sapiens)",
    "recorded.value": 5.77
  }
]

----------
# subject.of.test: Potassium channel subfamily T member 2 (Homo sapiens)
# Sequence (Q6UVM3 whole entry): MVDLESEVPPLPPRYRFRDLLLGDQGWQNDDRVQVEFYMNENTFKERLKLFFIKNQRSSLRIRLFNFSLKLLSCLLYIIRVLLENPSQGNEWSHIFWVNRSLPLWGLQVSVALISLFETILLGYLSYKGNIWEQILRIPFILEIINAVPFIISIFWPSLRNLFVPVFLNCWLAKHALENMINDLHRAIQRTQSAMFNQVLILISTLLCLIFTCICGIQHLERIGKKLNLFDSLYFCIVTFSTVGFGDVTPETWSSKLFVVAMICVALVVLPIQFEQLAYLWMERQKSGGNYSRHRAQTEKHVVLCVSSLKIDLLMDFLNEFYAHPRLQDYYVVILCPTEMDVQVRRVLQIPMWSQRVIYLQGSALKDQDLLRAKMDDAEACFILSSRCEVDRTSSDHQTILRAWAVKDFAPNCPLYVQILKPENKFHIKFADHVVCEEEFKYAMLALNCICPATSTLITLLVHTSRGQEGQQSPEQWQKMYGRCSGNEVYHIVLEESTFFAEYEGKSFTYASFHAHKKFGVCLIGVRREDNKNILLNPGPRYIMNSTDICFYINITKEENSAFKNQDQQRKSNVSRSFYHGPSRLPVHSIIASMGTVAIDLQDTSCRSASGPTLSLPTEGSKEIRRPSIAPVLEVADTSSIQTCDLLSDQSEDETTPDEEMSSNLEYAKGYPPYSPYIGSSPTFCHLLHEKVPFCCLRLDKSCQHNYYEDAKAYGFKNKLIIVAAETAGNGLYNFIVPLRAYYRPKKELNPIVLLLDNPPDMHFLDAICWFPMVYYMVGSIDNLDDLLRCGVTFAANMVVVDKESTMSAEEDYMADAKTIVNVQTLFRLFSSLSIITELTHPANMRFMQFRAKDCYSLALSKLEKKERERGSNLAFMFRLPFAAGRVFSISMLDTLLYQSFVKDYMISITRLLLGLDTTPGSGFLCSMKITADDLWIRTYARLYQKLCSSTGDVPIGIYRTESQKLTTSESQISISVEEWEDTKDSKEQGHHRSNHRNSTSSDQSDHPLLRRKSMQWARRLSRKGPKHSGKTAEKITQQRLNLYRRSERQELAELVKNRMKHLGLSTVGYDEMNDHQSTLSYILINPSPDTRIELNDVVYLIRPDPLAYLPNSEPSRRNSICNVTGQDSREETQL
# experiment: Inhibition of Slick (unknown origin) expressed in HEK293 cells measured by thallium flux assay

[
  {
    "smiles.record": "COc1ccc(Cl)cc1NC(=O)CN1CCN(S(=O)(=O)N2CCC(C)CC2)C[C@H]1C",
    "IC50": "> 10 µM"
  },
  {
    "smiles.record": "COc1ccc(C(F)(F)F)cc1NC(=O)CN1CCN(S(=O)(=O)N2CCC(C)CC2)CC1",
    "IC50": "4.1 µM"
  },
  {
    "smiles.record": "COc1ccc(Cl)cc1NC(=O)CN1CCN(S(=O)(=O)N2CCC(C)CC2)CC1",
    "IC50": "> 10 µM"
  },
  {
    "smiles.record": "COc1ccc(Cl)cc1NC(=O)[C@H](C)N1CCN(S(=O)(=O)N2CCC(C(F)(F)F)CC2)CC1",
    "IC50": "> 10 µM"
  }
]

----------
# subject.of.test: Potassium channel subfamily T member 1 (Homo sapiens)
# experiment: Inhibition of wild-type human Slack expressed in HEK293 cells measured by thallium flux assay
# Format: cell-based
pIC50: −log10 of the molar value.
Parameter pIC50: see the listing below.

[
  {
    "smiles.record": "COc1ccccc1NC(=O)CN1CCN(S(=O)(=O)N2CCC(C)CC2)CC1",
    "inequality.operator": "<",
    "pIC50": 5.00
  },
  {
    "smiles.record": "CCCOc1ccc(Cl)cc1NC(=O)CN1CCN(S(=O)(=O)N2CCC(C)CC2)CC1",
    "inequality.operator": "=",
    "pIC50": 5.37
  },
  {
    "smiles.record": "COc1ccc(Cl)cc1NC(=O)CN1CCN(S(=O)(=O)N2CCC(C)CC2)[C@H](C)C1",
    "inequality.operator": "=",
    "pIC50": 4.89
  },
  {
    "smiles.record": "COc1ccc(Cl)cc1NC(=O)N1CCCN(S(=O)(=O)N2CCC(C)CC2)CC1",
    "inequality.operator": "=",
    "pIC50": 5.21
  },
  {
    "smiles.record": "COc1ccc(Br)cc1NC(=O)CN1CCN(S(=O)(=O)N2CCC(C)CC2)CC1",
    "inequality.operator": "=",
    "pIC50": 5.85
  },
  {
    "smiles.record": "COc1ccc(Cl)cc1NC(=O)CN1CCN(S(=O)(=O)N2CCC(C)CC2)[C@@H](C)C1",
    "inequality.operator": "<",
    "pIC50": 5.00
  },
  {
    "smiles.record": "COc1ccc(Cl)cc1NC(=O)CN(C)CCN(C)S(=O)(=O)N1CCC(C)CC1",
    "inequality.operator": "<",
    "pIC50": 5.00
  },
  {
    "smiles.record": "COc1ccc(Cl)cc1NC(=O)CN1CCN(S(=O)(=O)N2CCC(C)CC2)C[C@H]1C",
    "inequality.operator": "=",
    "pIC50": 5.62
  },
  {
    "smiles.record": "CCCC1CCN(C(=O)N2CCN(S(=O)(=O)N3CCN(CC(=O)Nc4cc(Cl)ccc4OC)CC3)CC2)CC1",
    "inequality.operator": "<",
    "pIC50": 5.00
  },
  {
    "smiles.record": "COc1ccc(F)cc1NC(=O)CN1CCN(S(=O)(=O)N2CCC(C)CC2)CC1",
    "inequality.operator": "=",
    "pIC50": 5.31
  },
  {
    "smiles.record": "Cc1ccc(Cl)cc1NC(=O)CN1CCN(S(=O)(=O)N2CCC(C)CC2)CC1",
    "inequality.operator": "<",
    "pIC50": 5.00
  },
  {
    "smiles.record": "CC1CCN(S(=O)(=O)N2CCN(CC(=O)Nc3cc(Cl)ccc3OC(C)C)CC2)CC1",
    "inequality.operator": "=",
    "pIC50": 5.29
  },
  {
    "smiles.record": "COc1ccc(Cl)cc1NC(=O)CN1CCN(S(=O)(=O)N2CCC(C)CC2)C[C@@H]1C",
    "inequality.operator": "=",
    "pIC50": 5.46
  },
  {
    "smiles.record": "COc1ccc(Cl)cc1NC(=O)CN1CCN(S(=O)(=O)N2CCC(C)CC2)CC1",
    "inequality.operator": "=",
    "pIC50": 5.62
  },
  {
    "smiles.record": "COc1ccc(Cl)cc1NC(=O)N1CC2(C1)CN(S(=O)(=O)N1CCC(C)CC1)C2",
    "inequality.operator": "<",
    "pIC50": 5.00
  },
  {
    "smiles.record": "COc1ccc(C)cc1NC(=O)CN1CCN(S(=O)(=O)N2CCC(C)CC2)CC1",
    "inequality.operator": "<",
    "pIC50": 5.00
  },
  {
    "smiles.record": "CCOc1ccc(Cl)cc1NC(=O)CN1CCN(S(=O)(=O)N2CCC(C)CC2)CC1",
    "inequality.operator": "=",
    "pIC50": 5.15
  }
]

----------
# subject.of.test: Potassium channel subfamily T member 1 (Homo sapiens)
# Sequence (Q5JUK3 whole entry): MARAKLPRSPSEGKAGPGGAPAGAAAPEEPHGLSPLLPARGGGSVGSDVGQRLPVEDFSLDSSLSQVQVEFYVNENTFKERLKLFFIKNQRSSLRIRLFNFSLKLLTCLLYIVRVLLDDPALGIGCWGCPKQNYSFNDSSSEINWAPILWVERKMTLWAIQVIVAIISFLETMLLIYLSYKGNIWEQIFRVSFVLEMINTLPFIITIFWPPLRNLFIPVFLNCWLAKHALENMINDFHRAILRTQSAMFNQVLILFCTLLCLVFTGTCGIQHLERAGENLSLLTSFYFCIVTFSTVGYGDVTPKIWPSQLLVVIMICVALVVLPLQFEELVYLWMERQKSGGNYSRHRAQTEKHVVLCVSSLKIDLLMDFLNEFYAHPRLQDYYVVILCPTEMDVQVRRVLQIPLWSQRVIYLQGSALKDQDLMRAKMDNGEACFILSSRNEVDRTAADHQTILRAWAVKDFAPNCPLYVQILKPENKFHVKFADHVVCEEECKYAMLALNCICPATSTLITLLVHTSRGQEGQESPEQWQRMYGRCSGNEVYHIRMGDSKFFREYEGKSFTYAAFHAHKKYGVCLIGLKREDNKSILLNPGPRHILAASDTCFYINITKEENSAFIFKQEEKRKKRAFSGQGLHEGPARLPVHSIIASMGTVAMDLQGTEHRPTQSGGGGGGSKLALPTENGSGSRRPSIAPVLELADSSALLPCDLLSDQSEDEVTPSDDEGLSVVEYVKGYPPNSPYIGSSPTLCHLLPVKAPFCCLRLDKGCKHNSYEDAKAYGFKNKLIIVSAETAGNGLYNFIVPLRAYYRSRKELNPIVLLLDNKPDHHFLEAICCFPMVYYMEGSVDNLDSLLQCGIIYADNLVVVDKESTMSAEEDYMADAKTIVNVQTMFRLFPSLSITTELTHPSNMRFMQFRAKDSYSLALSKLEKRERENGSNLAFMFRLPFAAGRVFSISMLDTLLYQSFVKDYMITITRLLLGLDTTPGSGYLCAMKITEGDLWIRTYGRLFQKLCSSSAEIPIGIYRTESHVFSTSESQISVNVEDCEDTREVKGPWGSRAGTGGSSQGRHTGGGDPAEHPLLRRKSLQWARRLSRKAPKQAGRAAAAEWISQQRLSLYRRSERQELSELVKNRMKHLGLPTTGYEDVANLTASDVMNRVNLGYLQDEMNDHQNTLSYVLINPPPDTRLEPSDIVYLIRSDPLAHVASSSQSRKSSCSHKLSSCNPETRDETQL
# experiment: Activation of wild-type human Slack expressed in HEK293 cells measured by thallium flux assay

[
  {
    "smiles.record": "Cc1ccc(NC(=O)CN2CCN(S(=O)(=O)N3CCC(C)CC3)CC2)cc1",
    "subject.of.test": "Potassium channel subfamily T member 1 (Homo sapiens)",
    "EC50": "4.1 µM"
  },
  {
    "smiles.record": "COc1ccc(Cl)cc1NC(=O)N1CC2(CCN(S(=O)(=O)N3CCC(C)CC3)CC2)C1",
    "subject.of.test": "Potassium channel subfamily T member 1 (Homo sapiens)",
    "EC50": "> 10 µM"
  },
  {
    "smiles.record": "COc1ccc(Cl)cc1NC(=O)CN1CCN(S(=O)(=O)N2CCN(S(=O)(=O)N3CCC(F)(F)C3)CC2)CC1",
    "subject.of.test": "Potassium channel subfamily T member 1 (Homo sapiens)",
    "EC50": "> 10 µM"
  },
  {
    "smiles.record": "CC1CCN(S(=O)(=O)N2CCN(CC(=O)Nc3cc(Cl)ccc3F)CC2)CC1",
    "subject.of.test": "Potassium channel subfamily T member 1 (Homo sapiens)",
    "EC50": "3.8 µM"
  },
  {
    "smiles.record": "COc1ccc(Cl)cc1NC(=O)CN1CCN(S(=O)(=O)N2CCN(C(=O)N3CCCCC3)CC2)CC1",
    "subject.of.test": "Potassium channel subfamily T member 1 (Homo sapiens)",
    "EC50": "> 10 µM"
  },
  {
    "smiles.record": "COc1ccc(Cl)cc1NC(=O)CN1CCN(S(=O)(=O)N2CCN(C(=O)N3CCCCCC3)CC2)CC1",
    "subject.of.test": "Potassium channel subfamily T member 1 (Homo sapiens)",
    "EC50": "> 10 µM"
  },
  {
    "smiles.record": "COc1ccc(NC(=O)CN2CCN(S(=O)(=O)N3CCC(C)CC3)CC2)cc1",
    "subject.of.test": "Potassium channel subfamily T member 1 (Homo sapiens)",
    "EC50": "> 10 µM"
  },
  {
    "smiles.record": "CC1CCN(S(=O)(=O)N2CCN(CC(=O)Nc3cccc(F)c3)CC2)CC1",
    "subject.of.test": "Potassium channel subfamily T member 1 (Homo sapiens)",
    "EC50": "4.6 µM"
  }
]
